Property: inhibition at 1 µM; scope: individual molecules
# SYSTEM NAME: Acyl-CoA: cholesterol acyltransferase (ACAT) (Rattus norvegicus, UniProt Q7TQM4)
# Construct: from the mucosal microsome fraction of the small intestine; from tissue; host or cells: small intestine mucosal microsomes, male 6-week old Sprague-Dawley rats fasted 20 hours
# Sequence (Q7TQM4 1-524): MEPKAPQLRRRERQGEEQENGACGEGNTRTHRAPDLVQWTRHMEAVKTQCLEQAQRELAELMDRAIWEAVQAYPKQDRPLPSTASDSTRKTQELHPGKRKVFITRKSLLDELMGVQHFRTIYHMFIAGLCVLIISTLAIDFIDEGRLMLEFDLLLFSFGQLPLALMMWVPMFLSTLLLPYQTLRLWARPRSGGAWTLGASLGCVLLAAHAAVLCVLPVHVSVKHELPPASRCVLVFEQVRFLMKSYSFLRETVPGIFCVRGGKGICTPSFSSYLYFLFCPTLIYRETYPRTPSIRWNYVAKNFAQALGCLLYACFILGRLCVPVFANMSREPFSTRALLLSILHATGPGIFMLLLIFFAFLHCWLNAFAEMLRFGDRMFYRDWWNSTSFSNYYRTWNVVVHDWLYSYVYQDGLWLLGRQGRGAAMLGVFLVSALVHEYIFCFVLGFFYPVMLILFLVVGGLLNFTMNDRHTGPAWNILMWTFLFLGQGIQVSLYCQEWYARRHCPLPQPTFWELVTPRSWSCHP
# TEST METHOD NOTES: ACAT inhibitory activity (rat small intestine mucosal microsome; labeled cholesterol ester from [1-^14 C] oleoyl-CoA)
# Type: biochemical, Sprague-Dawley rat
# MEASUREMENT SETUP: 10^-6 M test compound; read-out: ACAT Inhibition Rate
Express it in %; write the number only.

Below are worked cases with known answers.
COc1ccc(C=CC(=O)Nc2cnc3cc(C)c(C)cc3c2-c2ccccc2Cl)cc1OC	92.6
COc1ccc(-c2c(NC(=O)c3cc(C(C)(C)C)c(O)c(C(C)(C)C)c3)cnc3ccc(Cl)cc23)c(OC)c1OC	84.8
COc1ccc(C=CC(=O)Nc2cnc3c(C)cc(C)cc3c2-c2ccccc2Cl)c(OC)c1OC	72.6
Cc1cc(C)c2ncc(NC(=O)c3cc(C(C)(C)C)c(O)c(C(C)(C)C)c3)c(-c3ccccc3Cl)c2c1	82.2
CC1=C(C(=O)Nc2cnc3c(C)cc(C)cc3c2-c2ccccc2Cl)Sc2ccccc2N1	76
CC(=O)Oc1c(C(C)C)cc(C(=O)Nc2cnc3c(C)cc(C)cc3c2-c2ccccc2Cl)cc1C(C)C	79.3
Cc1cc(C)c2ncc(NC(=O)C3(C)CCc4c(C)c(O)c(C)c(C)c4O3)c(-c3ccccc3Cl)c2c1 (stereo not shown)	41.2
COc1ccc(-c2c(NC(=O)c3cc(C(C)(C)C)c(O)c(C(C)(C)C)c3)cnc3ccc(Cl)cc23)cc1OC	83.4

// query Any idea what inhibition at 1 µM came out for COc1cccc(C=CC(=O)Nc2cnc3c(C)cc(C)cc3c2-c2ccccc2Cl)c1OC on Acyl-CoA: cholesterol acyltransferase (ACAT) (Rattus norvegicus, UniProt Q7TQM4)?
// result 69.4

// query Proceed to CC1=C(C(=O)Nc2cnc3c(C)cc(C)cc3c2-c2ccccc2Cl)Sc2cc(F)ccc2N1
// result 72.6

// query Proceed to Cc1cc(C)c2ncc(NC(=O)c3cc(C)c(O)c(C)c3C)c(-c3ccccc3Cl)c2c1
// result 94.3
